Origin of values: ChEMBL document CHEMBL1201862

System: SN12C
measurement_notes: NCI tumour cell line growth inhibition, 48 h
Active and inactive are the calls of the source. Rule as the data show it: active = GI50 up to about 1.1 µM and inactive = higher.
attribute_measured: GI50

# molecule, GI50
records = [
    ("N#C/C(N)=C(C#N)/N=C/NCCO", "> 100 µM (inactive)"),
    ("CC1C2CC=CC(=O)[C@@]2(C)CCC12OCCO2 (stereo partly drawn)", "> 100 µM (inactive)"),
    ("Cc1ccc(S(=O)(=O)n2cc(C=O)c(-c3cn(S(=O)(=O)c4ccc(C)cc4)cc3-c3cn(S(=O)(=O)c4ccc(C)cc4)cc3C=O)c2)cc1", "> 100 µM (inactive)"),
    ("CCOc1ccc(N/C(Cl)=C(Cl)\\C(=C(\\Nc2ccc(OCC)cc2)n2nnc3ccccc32)[N+](=O)[O-])cc1", "7.94 µM (inactive)"),
    ("CC(C)(C)c1cc(/C=C(\\C#N)C2=NCCO2)cc(C(C)(C)C)c1O", "2.94 µM (inactive)"),
    ("Cc1nnc(N)nc1/C=C\\c1ccc(Cl)cc1Cl", "61.5 µM (inactive)"),
]

// batch mode: one GI50 value per listed entry
1. CCCCNCCCNCCCNC(=O)c1csc(-c2csc(CCNC(=O)C(NC(=O)C(C)C(O)C(C)NC(=O)C(NC(=O)c3nc(C(CC(N)=O)NCC(N)C(N)=O)nc(N)c3C)C(OC3OC(CO)C(O)C(O)C3OC3OC(CO)C(O)C(OC(N)=O)C3O)c3c[nH]cn3)C(C)O)n2)n1 (stereo not drawn)
2. Nc1cccc(/C=C/C(=O)N2CCN(CCOC(c3ccccc3)c3ccccc3)CC2)c1

1. 2.21 µM (inactive)
2. 17.5 µM (inactive)

====

System: SK-MEL-28
measurement_notes: NCI tumour cell line growth inhibition, 48 h
The source made the active and inactive calls. No stated cut-off is given here; in the data, active = GI50 up to about 1.1 µM and inactive = higher.
Give one outcome, nothing more. List: active, inactive

# molecule, qualitative_label
measured = [
    ("CC(=O)Nc1ccc(NNc2cc(=O)n(C)c(=O)[nH]2)cc1", "inactive"),
    ("O=C1c2cccc(O)c2C(=O)c2c(O)cc(CO)cc21", "inactive"),
    ("OCC1C(O)C(O)[C@@H]2SCCN12 (stereo partly specified)", "inactive"),
]

Attention now shifts to the item below.
Tell me the assay call for "CC1=C(C(=O)Nc2ccccc2C)C(c2ccc(C3C(C(=O)Nc4ccccc4C)=CNC=C3C(=O)Nc3ccccc3C)cc2)C(C(=O)Nc2ccccc2C)=C(C)N1" please. inactive

====

Tested on: SK-MEL-28
measurement_notes: NCI tumour cell line growth inhibition, 48 h
Active and inactive are the calls of the source. Rule as the data show it: active = GI50 up to about 1.1 µM and inactive = higher. Peptide text beside a SMILES is read from it. * marks the point of attachment. OSu = O=C1CCC(=O)N1O*
attribute_measured: GI50

See these solved cases before continuing.
# molecule, GI50
measured = [
    ("O=C(CCn1[nH]c(=O)c(Cl)c(Cl)c1=O)NOCCCc1ccccc1", "> 100 µM (inactive)"),
    ("Cc1nnc(N)nc1/C=C\\c1ccc(Cl)cc1Cl", "55.5 µM (inactive)"),
    ("NCCCCC(NC(=O)C(N)Cc1ccc(O)cc1)C(=O)NC(Cc1ccc(O)cc1)C(=O)NC(CCCCN)C(=O)ON1C(=O)CCC1=O (stereo not given) (H-YKYK-OSu; configuration not given here)", "> 100 µM (inactive)"),
    ("Cc1c(/C=N/NC(=O)c2ccc(Cl)cc2)c(=O)n(-c2ccccc2)n1C", "> 100 µM (inactive)"),
    ("Cc1ccc(/N=C2\\SC(=NN(C)C)S\\C2=N/c2ccc(C)cc2)cc1", "> 100 µM (inactive)"),
    ("CC1(C)CC(N(C(=O)/C=C/c2ccc([N+](=O)[O-])o2)C2CCCCC2)CC(C)(C)N1", "12.5 µM (inactive)"),
]

// batch mode: one GI50 value per listed entry
1. COc1cc(OC)c(/C=C\c2cc(/C=C/c3c(OC)cc(OC)cc3OC)c3ccccc3[n+]2C)c(OC)c1
2. CC(=O)c1c(-c2ccco2)c(C#N)c(=S)n(C2OC(CO)C(O)C(O)C2O)c1-c1ccccc1 (stereo not given)
3. CCOC(=O)NC(Nc1ncccn1)(C(F)(F)F)C(F)(F)F
4. NCCCCCCNCc1cccc2ccccc12
5. CCN(CC)CCOC(=O)/C(=C/c1ccc(OC)cc1)c1cc(OC)c(OC)c(OC)c1
6. CC(=O)O[C@H]1C#C/C=C\C#CC[C@@H]2C(=O)N[C@@H]12

1: 3.39 µM (inactive); 2: 38.9 µM (inactive); 3: > 100 µM (inactive); 4: 65.2 µM (inactive); 5: 6.08 µM (inactive); 6: 93.3 µM (inactive)

====

Tested on: SNB-75
measurement_notes: NCI tumour cell line growth inhibition, 48 h
Activity calls are given as the source filed them. Rule as the data show it: active = GI50 up to about 1.1 µM and inactive = higher.
Would you mind telling me the reported GI50 of each entry?

See these solved cases before continuing.
# compound, GI50
data = [
    ("CC1=C(C(=O)Nc2ccccc2C)C(c2ccc([N+](=O)[O-])cc2)C(C(=O)Nc2ccccc2C)=C(C)N1", "22.8 µM (inactive)"),
    ("N=C(CSSCC(=N)NCC12CC3CC(CC(C3)C1)C2)NCC12CC3CC(CC(C3)C1)C2", "20.8 µM (inactive)"),
    ("CC(=O)OC1CCC2(C)C(CCC3C2CC(=O)C2(C)C3CC(N3CC3)C2C(C)=O)C1 (stereo not given)", "17.2 µM (inactive)"),
    ("O=c1[nH]cnc(NC2C=C(CO)C(O)C2O)c1[N+](=O)[O-] (stereo not given)", "> 100 µM (inactive)"),
]

Kindly consider the entry below.
Tell me reported GI50 for "CCCCOc1c(C(=O)O)cc(Br)cc1C(=O)O" , tested with SNB-75. > 100 µM (inactive)

====

Would you mind telling me the reported GI50 of each entry?
Tested on: U-251
measurement_notes: NCI tumour cell line growth inhibition, 48 h
Active and inactive are the calls of the source. No stated cut-off is given here; in the data, active = GI50 up to about 1.1 µM and inactive = higher.

See these solved cases before continuing.
# compound, attribute_measured, reported_measurement
records = [
    ("O=C(CCc1ccccc1)n1cccc1CO", "GI50", "> 100 µM (inactive)"),
    ("CC(=O)c1c(-c2ccco2)c(C#N)c(=S)n(C2OC(CO)C(O)C(O)C2O)c1-c1ccccc1 (centres undefined)", "GI50", "28.4 µM (inactive)"),
    ("CCOC(=O)C1=C(C)N(CC(C)C)C2(O)C(OC)CC(=O)C3C(=O)N(c4ccccc4)C(=O)C132 (centres undefined)", "GI50", "45.4 µM (inactive)"),
    ("CC(=O)OC12c3ccccc3-c3ccccc3C1C(C(=O)O)C2C(=O)O (centres undefined)", "GI50", "> 10 µM (inactive)"),
    ("CN(C)c1n/c(=N/c2ncn[nH]2)ss1", "GI50", "> 100 µM (inactive)"),
]

// batch mode: one GI50 value per listed entry
1. CCCCSC1=N/C(=C\c2ccc(N(C)C)cc2)C(Cl)=N1
2. CCOC(=O)CC(N1CC1)N1CC1
3. CCOC(=O)NC(Nc1ncccn1)(C(F)(F)F)C(F)(F)F
4. COC(=O)C1C(=O)CC2CCCCC21 (centres undefined)
5. COc1ccc2cc1Oc1ccc(cc1)CC1c3cc(c(OC)cc3CCN1C)Oc1c3c(cc4c1C(C2)N(C)CC4)OCO3 (centres undefined)
6. O=C1/C(=C/c2ccc(Br)cc2)CCC/C1=C\c1ccc(Br)cc1
7. O=[N+]([O-])c1ccc2c(c1)c1nn2CCCCOc2nn(c3ccc([N+](=O)[O-])cc23)CCCCO1
8. Cc1ccc(S(=O)(=O)NC(=O)Nc2cccc(S(N)(=O)=O)c2)cc1

1: > 100 µM (inactive); 2: > 10 µM (inactive); 3: > 100 µM (inactive); 4: > 100 µM (inactive); 5: 5.14 µM (inactive); 6: 7.05 µM (inactive); 7: > 100 µM (inactive); 8: > 100 µM (inactive)

// batch mode: one GI50 value per listed entry
1. O=[N+]([O-])c1ccccc1[S+]([O-])c1ccccc1 (centres undefined)
2. O=[N+]([O-])c1ccc(NN=C2CN3CCN(C2)c2ccccc23)c([N+](=O)[O-])c1
3. Cc1ccc([N+]2=NC(c3ccc([N+](=O)[O-])cc3)=NN(c3ccccc3)C2)cc1
4. CC(=O)OC1COC(N2c3ccccc3[C@@H]3CCc4c([nH]c5ccccc45)[C@@H]32)C(OC(C)=O)C1OC(C)=O.CC(=O)OC1COC(N2c3ccccc3[C@H]3CCc4c([nH]c5ccccc45)[C@H]32)C(OC(C)=O)C1OC(C)=O (some centres undefined)
5. Cc1ccc2c(c1C)-c1c(ccc(C)c1C)C(=O)C2=O

41.2 µM (inactive)
> 100 µM (inactive)
72.8 µM (inactive)
80.7 µM (inactive)
0.432 µM (active)

Need GI50, item "C[C@]12[C@@H]3CC[C@H]1[C@@H](OC(=O)Nc1cc([N+](=O)[O-])cc([N+](=O)[O-])c1)C(=O)N2CC3" > 100 µM (inactive)
